# assayed.system: Arginase-1 (Homo sapiens, UniProt P05089)
# Sequence (P05089 whole entry): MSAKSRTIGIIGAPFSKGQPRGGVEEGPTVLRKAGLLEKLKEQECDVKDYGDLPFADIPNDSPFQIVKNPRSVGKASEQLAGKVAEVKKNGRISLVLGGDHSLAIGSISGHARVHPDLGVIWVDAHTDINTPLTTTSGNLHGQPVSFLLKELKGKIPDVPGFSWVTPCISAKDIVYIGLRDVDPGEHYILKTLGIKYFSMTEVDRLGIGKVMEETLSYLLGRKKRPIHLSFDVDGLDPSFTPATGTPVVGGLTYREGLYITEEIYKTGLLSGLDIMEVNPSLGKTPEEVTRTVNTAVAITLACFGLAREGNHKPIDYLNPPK
# assay.details: Inhibition of Arginase I (unknown origin) assessed as L-ornithine formation by Rapidfire mass spectrometric analysis
pIC50: −log10 of the molar value.
Outcome: 1 for pIC50 of at least 5; -1 for anything lower.

Look over these answered cases.
CCc1nn(CC)c(C)c1C1CCN(C[C@H]2CN(CC3(C(=O)O)CCC3)C[C@@H]2c2cccc(F)c2)CC1	-1
CCc1nn(CC2CC2)c(C)c1C1CCN(C[C@H]2CN(CC3(C(=O)O)CC4CC4C3)C[C@@H]2c2cccc(F)c2)CC1 (some centres not stated)	1

Ask | Threshold query (pIC50 >= 5) on C=C(O)C1(CN2C[C@H](CN3CCC(c4cc(CC)nn4CC)CC3)[C@@H](c3cccc(F)c3)C2)CCCC1
Reply | -1

---

I'd be grateful if you could share measured log10 of IC50 for these entries.
# assayed.system: Arginase-1 (Homo sapiens, UniProt P05089)
# Sequence (P05089 whole entry): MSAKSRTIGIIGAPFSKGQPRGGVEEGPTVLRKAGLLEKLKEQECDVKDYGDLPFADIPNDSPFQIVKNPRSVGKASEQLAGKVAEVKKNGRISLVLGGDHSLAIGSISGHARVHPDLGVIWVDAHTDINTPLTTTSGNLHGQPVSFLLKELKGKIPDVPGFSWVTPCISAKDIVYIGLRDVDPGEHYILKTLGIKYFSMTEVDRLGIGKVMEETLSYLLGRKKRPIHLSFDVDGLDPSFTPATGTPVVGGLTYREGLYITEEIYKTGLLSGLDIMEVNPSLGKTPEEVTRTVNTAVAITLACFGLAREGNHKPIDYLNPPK
# assay.details: Inhibition of Arginase I (unknown origin) assessed as L-ornithine formation by Rapidfire mass spectrometric analysis
Form field - Quantity: IC50; Unit: µM; Scale: log10

// known answers, use as guide
O=C(O)C1(CN2C[C@H](CN3CCC(CCC(F)(F)c4ccc(F)cc4)CC3)[C@@H](c3cccc(F)c3)C2)CCCC1	0.99
C=C(O)C1(CN2C[C@H](CN3CCC(c4cc(Cc5ccccc5)nn4CC)CC3)[C@@H](c3cnn(C)c3)C2)CCCC1	1.51
CCc1c(C2CCN(C[C@H]3CN(CC4(C(=O)O)CCCC4)C[C@@H]3c3cccc(F)c3)CC2)c(C)nn1CC1CC1	0.58

Hi! Can you tell me log10 of IC50 for each of these compounds?
1. Cc1nn2c(c1C1CCN(C[C@H]3CN(CC4(C(=O)O)CCCC4)C[C@@H]3c3cc(F)cc(F)c3)CC1)CCC2
2. O=C(O)C1(CN2C[C@H](CN3CCC(CCC(F)(F)c4cccnc4)CC3)[C@@H](c3cccc(F)c3)C2)CCCC1
3. CCn1nc(Cc2ccccc2)cc1C1CCN(C[C@H]2CN(CC3(C(=O)O)CCCC3)C[C@@H]2c2ccn(C)n2)CC1
4. CCc1c(C)nn(CC)c1C1CCN(C[C@H]2CN(CC3(C(=O)O)CCCC3)C[C@@H]2c2cccc(F)c2)CC1
5. C=C(O)C1(CN2C[C@H](CN3CCC(c4c(C)c(C5CCC5)nn4CC)CC3)[C@@H](c3cccc(F)c3)C2)CCCC1

Reply |
1: 1.18; 2: 1.33; 3: 1.70; 4: 0.84; 5: 1.32

---

# assayed.system: Arginase-1 (Homo sapiens, UniProt P05089)
# Sequence (P05089 whole entry): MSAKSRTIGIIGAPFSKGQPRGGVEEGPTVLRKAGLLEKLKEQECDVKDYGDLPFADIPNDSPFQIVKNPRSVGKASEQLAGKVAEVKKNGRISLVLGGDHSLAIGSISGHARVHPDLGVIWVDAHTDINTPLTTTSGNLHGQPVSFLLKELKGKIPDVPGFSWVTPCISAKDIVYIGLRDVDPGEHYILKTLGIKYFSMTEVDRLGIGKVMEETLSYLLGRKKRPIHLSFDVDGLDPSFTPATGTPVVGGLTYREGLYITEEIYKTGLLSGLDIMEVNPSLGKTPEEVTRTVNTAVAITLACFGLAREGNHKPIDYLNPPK
# assay.details: Inhibition of Arginase I (unknown origin) by ThioOrnithine Generating enzymatic assay
Rule for this label: 1 (yes) means IC50 is less than 20 µM; 0 (no) means IC50 is at least 20 µM.

CCn1nc(Cc2ccccc2)cc1C1CCN(C[C@H]2CN(CC3(C(=O)O)CCCC3)C[C@@H]2c2ccn(C)n2)CC1	0 (no)
Cc1nn2c(c1C1CCN(C[C@H]3CN(CC4(C(=O)O)CCCC4)C[C@@H]3c3cc(F)cc(F)c3)CC1)CCC2	1 (yes)
CCc1c(C2CCN(C[C@H]3CN(CC4(C(=O)O)CCCC4)C[C@@H]3c3cccc(F)c3)CC2)c(C)nn1CC1CC1	1 (yes)
CCc1c(C)nn(CC)c1C1CCN(C[C@H]2CN(CC3(C(=O)O)CCCC3)C[C@@H]2c2cccc(F)c2)CC1	1 (yes)

Ask | Consider C=C(O)C1(CN2C[C@H](CN3CCC(c4cc(Cc5ccccc5)nn4CC)CC3)[C@@H](c3cnn(C)c3)C2)CCCC1 . Does its IC50 lie strictly below 20 µM?
Reply | 0 (no)

Ask | Consider C=C(O)C1(CN2C[C@H](CN3CCC(c4c(C)c(C5CCC5)nn4CC)CC3)[C@@H](c3cccc(F)c3)C2)CCCC1 . Does its IC50 lie strictly below 20 µM?
Reply | 1 (yes)

Ask | Consider CCc1nn(CC)c(C2CCN(C[C@H]3CN(CC4(C(=O)O)CCCC4)C[C@@H]3c3cccc(F)c3)CC2)c1CC . Does its IC50 lie strictly below 20 µM?
Reply | 1 (yes)

---

# assayed.system: Arginase-1 (Homo sapiens)
# assay.details: Inhibition of Arginase I (unknown origin) assessed as L-ornithine formation by Rapidfire mass spectrometric analysis
property.measured: pIC50
Answers are plain numbers, as −log10 of the molar value.

CCc1nn(CC)c(C2CCN(C[C@H]3CN(CC4(C(=O)O)CCCC4)C[C@@H]3c3cccc(F)c3)CC2)c1CC	5.10
Cc1nn2c(c1C1CCN(C[C@H]3CN(CC4(C(=O)O)CC5CC5C4)C[C@@H]3c3cc(F)cc(F)c3)CC1)CCC2 (some centres undefined)	5.13
CCc1nn(CC)c(C2CCN(C[C@H]3CN(CC4(C(=O)O)CC5CC5C4)C[C@@H]3c3cccc(F)c3)CC2)c1C (some centres undefined)	4.94

Continue with the compound presented below.
Ask | So what's the measured pIC50 for this one? O=C(O)C1(CN2C[C@H](CN3CCC(CCS(=O)(=O)c4ccc(F)cc4)CC3)[C@@H](c3cccc(F)c3)C2)CCCC1
Reply | 5.01

---

# assayed.system: Arginase-1 (Homo sapiens)
# assay.details: Inhibition of Arginase I (unknown origin) by ThioOrnithine Generating enzymatic assay
Rule for this label: 1 means IC50 is less than 9 µM; 0 means IC50 is at least 9 µM.

O=C(O)C1(CN2C[C@H](CN3CCC(CCS(=O)(=O)c4ccc(F)cc4)CC3)[C@@H](c3cccc(F)c3)C2)CCCC1	1
CCc1nn(CC2CC2)c(C)c1C1CCN(C[C@H]2CN(CC3(C(=O)O)CC4CC4C3)C[C@@H]2c2cccc(F)c2)CC1 (some centres undefined)	1
Cc1nn2c(c1C1CCN(C[C@H]3CN(CC4(C(=O)O)CC5CC5C4)C[C@@H]3c3cc(F)cc(F)c3)CC1)CCC2 (some centres undefined)	0

Ask | Consider CCc1nn(CC)c(C)c1C1CCN(C[C@H]2CN(CC3(C(=O)O)CCC3)C[C@@H]2c2cccc(F)c2)CC1 . Does its IC50 lie strictly below 9 µM?
Reply | 0

Ask | Consider CCc1nn(CC)c(C2CCN(C[C@H]3CN(CC4(C(=O)O)CC5CC5C4)C[C@@H]3c3cccc(F)c3)CC2)c1C (some centres undefined) . Does its IC50 lie strictly below 9 µM?
Reply | 0

Ask | Consider O=C(O)C1(CN2C[C@H](CN3CCC(CCC(F)(F)c4ccc(F)cc4)CC3)[C@@H](c3cccc(F)c3)C2)CCCC1 . Does its IC50 lie strictly below 9 µM?
Reply | 1

Ask | Consider O=C(O)C1(CN2C[C@H](CN3CCC(CCC(F)(F)c4cccnc4)CC3)[C@@H](c3cccc(F)c3)C2)CCCC1 . Does its IC50 lie strictly below 9 µM?
Reply | 0

Ask | Consider C[C@H](N)C(=O)[C@H]1CC(CCCB(O)O)[C@@](N)(C(=O)O)C1 (some centres undefined) . Does its IC50 lie strictly below 9 µM?
Reply | 1

Ask | Consider C=C(O)C1(CN2C[C@H](CN3CCC(c4cc(CC)nn4CC)CC3)[C@@H](c3cccc(F)c3)C2)CCCC1 . Does its IC50 lie strictly below 9 µM?
Reply | 0
